studyTarget: T1, 重组huPCSK9-his (人PCSK9, C端His-tag) (human, UniProt Q8NBP7 54-692)
T1 construct: Expressed in HEK293 cells; not shown: C-terminal His-tag
T1 sequence (Q8NBP7 other isoform, or with tags, fused parts or gaps): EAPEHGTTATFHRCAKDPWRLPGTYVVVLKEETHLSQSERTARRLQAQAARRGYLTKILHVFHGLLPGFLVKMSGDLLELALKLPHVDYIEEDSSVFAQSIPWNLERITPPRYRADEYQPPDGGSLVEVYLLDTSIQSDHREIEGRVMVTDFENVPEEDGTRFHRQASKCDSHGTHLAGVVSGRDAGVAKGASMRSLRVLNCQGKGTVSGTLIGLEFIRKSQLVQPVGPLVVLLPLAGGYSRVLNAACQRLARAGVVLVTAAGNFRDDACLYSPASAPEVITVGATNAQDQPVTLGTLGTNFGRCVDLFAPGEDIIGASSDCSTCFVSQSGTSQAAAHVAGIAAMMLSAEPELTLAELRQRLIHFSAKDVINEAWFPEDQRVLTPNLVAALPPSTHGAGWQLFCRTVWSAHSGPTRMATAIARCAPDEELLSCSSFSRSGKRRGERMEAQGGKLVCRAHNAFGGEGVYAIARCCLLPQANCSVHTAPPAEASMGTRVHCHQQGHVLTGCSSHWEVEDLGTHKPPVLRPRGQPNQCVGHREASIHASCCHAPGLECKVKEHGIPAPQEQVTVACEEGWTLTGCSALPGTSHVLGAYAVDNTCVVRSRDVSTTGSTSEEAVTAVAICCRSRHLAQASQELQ
experimentSummary: SPR, Biacore 3000, antibody captured by anti-human Fc on CM5, huPCSK9 as analyte
resultType: kon (M⁻¹ s⁻¹)
API: value field is a number in M⁻¹ s⁻¹; no unit string.

Q) What value of kon has been reported for the following binder? H8F4-IgG4 (antibody, V domains shown) VH: QVQLVQSGAEVKKPGASVKVSCKASGYALYNYGISWVRQAPGQGLEWMGWVSFYNGNTNYAQKLQGRGTMTTDPSTSTAYMELRSLRSDDTAVYYCARGYVMDIWGQGTTVTVSS VL: DIQMTQSPSSLSASVGDRVTITCRASQSINNWLDWYQQKPGKAPKLLIYAASTRPSGVPSRFSGSGSGTDFTLTISSLQPEDFATYYCQQDQDIPPTFGQGTKVEIKR
A) 663000

The origin of these recorded values is patent CN105348390A.
